binders and their reported EC50
target: Sin Nombre virus (SNV) glycoproteins Gn and Gc displayed on the surface of Expi293F cells transfected with … (Sin Nombre virus); assay: flow

binder	EC50, ng/mL
SNV-24 (antibody, V domains shown) VH: EVQLLESGGGLIQSGGSLRLSCVVSGIDFSNYAMTWVRHAPGKGLEWISTISGSGDTTNYADSAKGRFTISRDNSRNTLFVRINSLRAEDTAIYYCAKTMGPVSGQYAFDIWGQGTKVTVSS VL: SYELTQPPSVSVSPGQTATITCSGDNLGNKFASWYQQKPGLSPVLVIYQDKKRPSGIPERFSGSNSGNTATLTISGTQAMDEADYFCQAWHSGSVFGGGTKLTVL	7.2
SNV-56 (antibody, V domains shown) VH: EVQLVESGGRLVRPGGSLRLSCAASGFTFSHYNMNWVRQAPGKGLEWVSSINSRNGYTYYADSVKGRFTISRDNAKNSLYLQMNSLRPEDTAVYYCARDPPLYSGYDLGYYYYGMDVWGQGTTVTVSS VL: DIQMTQSPSTLSAFVGDRVTITCRANQNISKWLAWYQQKPGKAPNLLIHKASSLESGVPSRFSGSGSGTEFTLTISSLQPDDFATYSCQQYNSYPWAFGQGTRVEIK	66
SNV-65 (antibody, V domains shown) VH: QVQLQESGPGLVKPSQTLSLTCTVSGGSISSGGYFWSWIRQHPGKGLEWIGYIYYSGSTYYNPSLKSRVTISIDTSKIQFSLKLTSVTAADTAVYYCARDVGGFDIWGQGTMVTVSS VL: DIQMTQSPSSLSASIGDRVTITCQASQDINKYLNWYQQKPGKAPKVLIYDASNLETGVPSRFSGSGSGTDFTFTISSLQPEDVATYYCQQYENLPRTFGQGTKVEIK	3.4
